Each record here notes measured RORγ repression, fold change over DMSO.
- target-of-assay: RORγ (Homo sapiens, UniProt P51449)
- Construct: expressed in transfected cells; host or cells: HEK293T
- Sequence (P51449 269-508 limits assumed): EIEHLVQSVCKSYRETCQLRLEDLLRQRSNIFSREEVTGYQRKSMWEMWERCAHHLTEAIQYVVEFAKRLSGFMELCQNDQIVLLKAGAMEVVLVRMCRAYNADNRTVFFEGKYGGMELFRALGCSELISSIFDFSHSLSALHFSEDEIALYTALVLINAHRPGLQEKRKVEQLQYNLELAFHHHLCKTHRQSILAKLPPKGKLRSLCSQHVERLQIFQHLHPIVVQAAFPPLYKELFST
- protocol-details: Gal4-RORγ LBD / UAS luciferase cotransfection assay
- Format: cell-based
- stated-conditions: 10 μM
value-kind: RORγ repression, fold change over DMSO (fold change over DMSO)

>  <compound>
OC(c1ccc(-c2ccc(CN3CCN(Cc4cccs4)CC3)cc2)cc1)(C(F)(F)F)C(F)(F)F

>  <measurement-unit>
fold change over DMSO

>  <numeric-value>
0.5

$$$$
>  <compound>
OC(c1ccc(-c2ccc(CN3CCN(Cc4c(F)cncc4F)CC3)cc2)cc1)(C(F)(F)F)C(F)(F)F

>  <measurement-unit>
fold change over DMSO

>  <numeric-value>
0.15

$$$$
>  <compound>
OCCN1CCN(Cc2ccc(-c3ccc(C(O)(C(F)(F)F)C(F)(F)F)cc3)cc2)CC1

>  <measurement-unit>
fold change over DMSO

>  <numeric-value>
0.9

$$$$
>  <compound>
Cc1cc(-c2ccc(C(O)(C(F)(F)F)C(F)(F)F)cc2)ccc1CN1CCN(Cc2ccncc2)CC1

>  <measurement-unit>
fold change over DMSO

>  <numeric-value>
0.05

$$$$
>  <compound>
Cc1cc(CN2CCN(Cc3ccc(-c4ccc(C(O)(C(F)(F)F)C(F)(F)F)cc4)cc3)CC2)ccn1

>  <measurement-unit>
fold change over DMSO

>  <numeric-value>
0.1

$$$$
>  <compound>
O=S(=O)(Cc1ccccc1)N1CCN(Cc2ccc(-c3ccc(C(O)(C(F)(F)F)C(F)(F)F)cc3)cc2)CC1

>  <measurement-unit>
fold change over DMSO

>  <numeric-value>
0.75

$$$$
>  <compound>
O=C(c1ccc(-c2ccc(C(O)(C(F)(F)F)C(F)(F)F)cc2)cc1)N1CCN(Cc2ccncc2)CC1

>  <measurement-unit>
fold change over DMSO

>  <numeric-value>
0.1

$$$$
>  <compound>
O=C(OCc1ccccc1)N1CCN(Cc2ccc(-c3ccc(C(O)(C(F)(F)F)C(F)(F)F)cc3)cc2)CC1

>  <measurement-unit>
fold change over DMSO

>  <numeric-value>
0.5

$$$$
>  <compound>
Cc1ccc([N+](=O)[O-])cc1S(=O)(=O)N1CCN(Cc2ccc(-c3ccc(C(O)(C(F)(F)F)C(F)(F)F)cc3)cc2)CC1

>  <measurement-unit>
fold change over DMSO

>  <numeric-value>
0.4

$$$$
>  <compound>
OC(c1ccc(-c2ccc(CN3CCN(Cc4ccncc4)CC3)cc2F)cc1)(C(F)(F)F)C(F)(F)F

>  <measurement-unit>
fold change over DMSO

>  <numeric-value>
0.05

$$$$
>  <compound>
O=C(C1CCCO1)N1CCN(Cc2ccc(-c3ccc(C(O)(C(F)(F)F)C(F)(F)F)cc3)cc2)CC1 (stereo not drawn)

>  <measurement-unit>
fold change over DMSO

>  <numeric-value>
0.6

$$$$
>  <compound>
OC(c1ccc(-c2ccc(CN3CCN(c4ccccc4)CC3)cc2)cc1)(C(F)(F)F)C(F)(F)F

>  <measurement-unit>
fold change over DMSO

>  <numeric-value>
0.05

$$$$
>  <compound>
CCC(=O)N1CCN(Cc2ccc(-c3ccc(C(O)(C(F)(F)F)C(F)(F)F)cc3)cc2)CC1

>  <measurement-unit>
fold change over DMSO

>  <numeric-value>
0.45

$$$$
>  <compound>
O=C(Oc1ccc([N+](=O)[O-])cc1)N1CCN(Cc2ccc(-c3ccc(C(O)(C(F)(F)F)C(F)(F)F)cc3)cc2)CC1

>  <measurement-unit>
fold change over DMSO

>  <numeric-value>
0.6

$$$$
>  <compound>
OC(c1ccc(-c2ccc(CN3CCN(CCc4ccccc4)CC3)cc2)cc1)(C(F)(F)F)C(F)(F)F

>  <measurement-unit>
fold change over DMSO

>  <numeric-value>
0.5

$$$$
